Each recorded value in this set is attributed to ChEMBL document CHEMBL5303573.

Assay: The drug is tested on Anaerotruncus colihominis strain: DSM17241 for biotransformation. The drug concentrations were measured before and after a 12-h incubation by liquid-chromatography-coupled mass spectrometry (LC–MS)
Details: 2 µM

[
  {
    "Compound": "CN1C[C@H](C(=O)N[C@]2(C)O[C@@]3(O)[C@@H]4CCCN4C(=O)[C@H](Cc4ccccc4)N3C2=O)C=C2c3cccc4[nH]cc(c34)C[C@H]21.CN1C[C@H](C(=O)N[C@]2(C)O[C@@]3(O)[C@@H]4CCCN4C(=O)[C@H](Cc4ccccc4)N3C2=O)C=C2c3cccc4[nH]cc(c34)C[C@H]21.O=C(O)C(O)C(O)C(=O)O [ERGOTAMINE TARTRATE]",
    "Bacterial Biotransformation": "Compound metabolized"
  },
  {
    "Compound": "CC(C)C[C@H]1C(=O)N2CCC[C@H]2[C@]2(O)O[C@](NC(=O)[C@@H]3C=C4c5cccc6[nH]c(Br)c(c56)C[C@H]4N(C)C3)(C(C)C)C(=O)N12.CS(=O)(=O)O [BROMOCRIPTINE MESYLATE]",
    "Bacterial Biotransformation": "Compound metabolized"
  },
  {
    "Compound": "COc1c2occc2cc2ccc(=O)oc12 [METHOXSALEN]",
    "Bacterial Biotransformation": "Compound NOT metabolized"
  },
  {
    "Compound": "CS(=O)(=O)O.OC(CCN1CCCCC1)(c1ccccc1)c1ccccc1 [PRIDINOL METHANESULFONATE]",
    "Bacterial Biotransformation": "Compound NOT metabolized"
  },
  {
    "Compound": "CC(=O)OCC(=O)[C@@]1(OC(C)=O)[C@@H](C)C[C@H]2[C@@H]3C[C@H](F)C4=CC(=O)C=C[C@]4(C)[C@@]3(F)[C@@H](O)C[C@@]21C [DIFLORASONE DIACETATE]",
    "Bacterial Biotransformation": "Compound metabolized"
  },
  {
    "Compound": "CC(CN(C)C)CN1c2ccccc2CCc2ccccc21.O=C(O)/C=C\\C(=O)O (stereo unspecified) [TRIMIPRAMINE MALEATE]",
    "Bacterial Biotransformation": "Compound NOT metabolized"
  }
]
